Target: GLP-1R (Homo sapiens)
Construct: host or cells: GLP-1R CRE-bla CHO-K1 cells
Experiment: EC20 GLP-1(9-36) PAM cAMP assay: dose response of compound in the presence of fixed concentration of GLP-1(9-36)
Format: cell-based
Conditions: dose response of compound in presence of fixed concentration of GLP-1(9-36), GLP-1R CRE-bla CHO-K1 cells, read-out: EC20 GLP-1(9-36) PAM EC50

>  <Structure Smiles>
CCCCCCCOc1ccc(-c2cnc(-c3ccc(C[C@H](NC(=O)c4ccc(C(C)(C)C)c(OC)c4)C(=O)N4CCC[C@H]4C(=O)O)cc3)nc2)cc1

>  <EC50>
800 to 2500 nM

$$$$
>  <Structure Smiles>
CCCCCCCOc1ccc(-c2cnc(-c3ccc(C[C@H](NC(=O)c4ccc(C(C)(C)C)s4)C(=O)NS(=O)(=O)CC(=O)OC)cc3)nc2)cc1

>  <EC50>
< 800 nM

$$$$
>  <Structure Smiles>
CC(C)(C)c1ccc(C(=O)N[C@@H](Cc2ccc(-c3ncc(-c4ccc(C5CCCC5)cc4)cn3)cc2)C(=O)N2CC[C@H](C(=O)O)C2)s1

>  <EC50>
< 800 nM

$$$$
>  <Structure Smiles>
CCCCCCNc1ccc(-c2cnc(-c3ccc(C[C@H](NC(=O)c4ccc(C(C)(C)C)cc4)C(=O)NCCC(=O)O)cc3)nc2)cc1

>  <EC50>
2500 to 5000 nM

$$$$
>  <Structure Smiles>
CC[C@H]1CC[C@H](c2ccc(-c3cnc(-c4ccc(C[C@H](NC(=O)c5ccc(C(C)(C)C)s5)C(=O)N[C@H](C)C(=O)O)cc4)nc3)cc2)CC1

>  <EC50>
< 800 nM

$$$$
>  <Structure Smiles>
CCCCCCCOc1ccc(-c2cnc(-c3ccc(C[C@H](NC(=O)Cc4ccc(OCCCC)cc4)C(=O)N[C@H](C)C(=O)O)cc3)nc2)cc1

>  <EC50>
2500 to 5000 nM

$$$$

----------
Here the recorded pEC50 is given for each entry.
Biological target: GLP-1R (Homo sapiens, UniProt P43220)
Construct: host or cells: GLP-1R CRE-bla CHO-K1 cells
Sequence (P43220 24-463): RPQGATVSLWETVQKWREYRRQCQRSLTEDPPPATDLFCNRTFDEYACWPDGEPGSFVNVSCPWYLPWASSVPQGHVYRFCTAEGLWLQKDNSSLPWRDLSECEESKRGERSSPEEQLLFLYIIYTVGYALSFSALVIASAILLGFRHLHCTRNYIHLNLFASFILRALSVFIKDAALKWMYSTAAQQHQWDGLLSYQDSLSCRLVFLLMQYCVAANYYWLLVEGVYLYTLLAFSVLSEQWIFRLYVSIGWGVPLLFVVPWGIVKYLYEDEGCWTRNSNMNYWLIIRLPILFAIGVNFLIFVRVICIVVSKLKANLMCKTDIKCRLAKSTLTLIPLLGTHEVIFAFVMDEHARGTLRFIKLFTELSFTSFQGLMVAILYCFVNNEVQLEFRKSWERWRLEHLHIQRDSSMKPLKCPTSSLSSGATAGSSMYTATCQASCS
Sequence (P01275 100-127 partner limits assumed): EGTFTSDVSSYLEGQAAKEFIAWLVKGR
Test: EC20 GLP-1(9-36) PAM cAMP assay: dose response of compound in the presence of fixed concentration of GLP-1(9-36)
Assay type: cell-based
Conditions: dose response of compound in presence of fixed concentration of GLP-1(9-36), GLP-1R CRE-bla CHO-K1 cells, read-out: EC20 GLP-1(9-36) PAM EC50
pEC50: −log10 of the molar value.

>  <Compound>
CCCCCCCOc1ccc(-c2cnc(-c3ccc(C[C@H](NC(=O)c4ccc(CC(C)C)cc4)C(=O)N[C@H](C)C(=O)O)cc3)nc2)cc1 [Compound 823]

>  <Experimental Target>
GLP-1R (Homo sapiens, UniProt P43220)

>  <pEC50>
5.60 to 6.10

$$$$
>  <Compound>
CCCCCCCOc1ccc(-c2cnc(-c3ccc(C[C@H](NC(=O)c4ccc(C(C)(C)C)cc4)C(=O)NC(C(=O)O)c4c(C)n[nH]c4C)cc3)nc2)cc1 (stereo partly drawn) [Compound 549]

>  <Experimental Target>
GLP-1R (Homo sapiens, UniProt P43220)

>  <pEC50>
> 6.10

$$$$
>  <Compound>
CCCCCCCOc1ccc(-c2cnc(-c3ccc(C[C@H](NC(=O)c4ccc(C(C)(C)C)s4)C(=O)NS(=O)(=O)CCOC)cc3)nc2)cc1 [Compound 435]

>  <Experimental Target>
GLP-1R (Homo sapiens, UniProt P43220)

>  <pEC50>
5.60 to 6.10

$$$$

----------
Biological target: GLP-1R (Homo sapiens, UniProt P43220)
Construct: host or cells: GLP-1R CRE-bla CHO-K1 cells
Experiment: EC20 GLP-1(9-36) PAM cAMP assay: dose response of compound in the presence of fixed concentration of GLP-1(9-36)
Assay type: cell-based
Conditions: dose response of compound in presence of fixed concentration of GLP-1(9-36), GLP-1R CRE-bla CHO-K1 cells, read-out: EC20 GLP-1(9-36) PAM EC50
pEC50: −log10 of the molar value.
Entries and their measured pEC50 follow.
Measurement Type: pEC50

>  <Molecule>
CSc1cccc(-c2cnc(-c3ccc(C[C@H](NC(=O)c4ccc(C(C)(C)C)s4)C(=O)N[C@H](C)C(=O)O)cc3)nc2)c1

>  <Experimental Target>
GLP-1R (Homo sapiens, UniProt P43220)

>  <Measurement Type>
pEC50

>  <Result>
5.00 to 5.30

$$$$
>  <Molecule>
CCCCCCCOc1ccc(-c2cnc(-c3ccc(C[C@H](NC(=O)c4ccc(C(C)(C)C)cc4)C(=O)N[C@@H](CC(=O)N(C)CCN)C(=O)O)cc3)nc2)cc1

>  <Experimental Target>
GLP-1R (Homo sapiens, UniProt P43220)

>  <Measurement Type>
pEC50

>  <Result>
5.60 to 6.10

$$$$
>  <Molecule>
CCCCCCCOc1ccc(-c2cnc(-c3ccc(C[C@H](NC(=O)c4ccc(C(C)(C)C)cc4)C(=O)N4C[C@@H](O)C[C@@H]4C(=O)O)cc3)nc2)cc1

>  <Experimental Target>
GLP-1R (Homo sapiens, UniProt P43220)

>  <Measurement Type>
pEC50

>  <Result>
> 6.10

$$$$
>  <Molecule>
CCCCCCCOc1ccc(-c2cnc(-c3ccc(C[C@H](NC(=O)c4ccc(C(C)(C)C)s4)C(=O)N4CCC(NC)CC4)cc3)nc2)cc1

>  <Experimental Target>
GLP-1R (Homo sapiens, UniProt P43220)

>  <Measurement Type>
pEC50

>  <Result>
5.00 to 5.30

$$$$
>  <Molecule>
CCCCCCCOc1ccc(-c2cnc(-c3ccc(C[C@H](NC(=O)c4ccc(C(C)(C)C)cc4)C(=O)N[C@H](CC(=O)NC)C(=O)O)cc3)nc2)cc1

>  <Experimental Target>
GLP-1R (Homo sapiens, UniProt P43220)

>  <Measurement Type>
pEC50

>  <Result>
> 6.10

$$$$
>  <Molecule>
CCCCCCCOc1ccc(-c2cnc(-c3ccc(C[C@H](NC(=O)c4ccc(C(C)(C)C)s4)C(=O)NC(C)(C)C(=O)O)cc3)nc2)cc1

>  <Experimental Target>
GLP-1R (Homo sapiens, UniProt P43220)

>  <Measurement Type>
pEC50

>  <Result>
5.60 to 6.10

$$$$
>  <Molecule>
CCCCCCCOc1ccc(-c2cnc(-c3ccc(C[C@H](NC(=O)c4ccc(C(C)(C)C)s4)C(=O)NC(C(=O)O)C(O)c4ccc(S(C)(=O)=O)cc4)cc3)nc2)cc1 (some centres unmarked)

>  <Experimental Target>
GLP-1R (Homo sapiens, UniProt P43220)

>  <Measurement Type>
pEC50

>  <Result>
5.60 to 6.10

$$$$
>  <Molecule>
CC(C)CCCCOc1ccc(-c2cnc(-c3ccc(C[C@H](NC(=O)c4ccc(C(C)(C)C)s4)C(=O)N[C@H](C)C(=O)O)cc3)nc2)cc1

>  <Experimental Target>
GLP-1R (Homo sapiens, UniProt P43220)

>  <Measurement Type>
pEC50

>  <Result>
> 6.10

$$$$
>  <Molecule>
CCCCCOc1ccc(-c2cnc(-c3ccc(C[C@H](NC(=O)c4ccc(C(C)(C)C)cc4)C(=O)NCCC(=O)O)cc3)nc2)cc1 [Compound 489]

>  <Experimental Target>
GLP-1R (Homo sapiens, UniProt P43220)

>  <Measurement Type>
pEC50

>  <Result>
5.60 to 6.10

$$$$
>  <Molecule>
CCCCCCCOc1ccc(-c2cnc(-c3ccc(C[C@H](NC(=O)c4ccc(C(C)(C)C)s4)C(=O)N4CC(C(=O)O)CC4C)cc3)nc2)cc1 (some centres unmarked)

>  <Experimental Target>
GLP-1R (Homo sapiens, UniProt P43220)

>  <Measurement Type>
pEC50

>  <Result>
> 6.10

$$$$
>  <Molecule>
CCCCCCCOc1ccc(-c2cnc(-c3ccc(C[C@H](NC(=O)c4ccc(C(C)(C)C)s4)C(=O)N4CCC(CCC(=O)O)C4)cc3)nc2)cc1 (some centres unmarked)

>  <Experimental Target>
GLP-1R (Homo sapiens, UniProt P43220)

>  <Measurement Type>
pEC50

>  <Result>
5.60 to 6.10

$$$$
>  <Molecule>
CCCCCCCOc1ccc(-c2cnc(-c3ccc(C[C@H](NC(=O)c4ccc(C(C)(C)C)s4)C(=O)NC[C@H]4C[C@H](N)C4)cc3)nc2)cc1

>  <Experimental Target>
GLP-1R (Homo sapiens, UniProt P43220)

>  <Measurement Type>
pEC50

>  <Result>
5.30 to 5.60

$$$$
>  <Molecule>
CCCCCCCOc1ccc(-c2cnc(-c3ccc(C(NC(=O)c4ccc(C(C)(C)C)s4)C(=O)O)cc3)nc2)cc1 (centres unmarked)

>  <Experimental Target>
GLP-1R (Homo sapiens, UniProt P43220)

>  <Measurement Type>
pEC50

>  <Result>
5.30 to 5.60

$$$$
>  <Molecule>
CCCc1ccc(-c2cnc(-c3ccc(C[C@H](NC(=O)c4ccc(C(C)(C)C)cc4)C(=O)NCCC(=O)O)cc3)nc2)cc1

>  <Experimental Target>
GLP-1R (Homo sapiens, UniProt P43220)

>  <Measurement Type>
pEC50

>  <Result>
5.30 to 5.60

$$$$
>  <Molecule>
CCC(C)(C)c1ccc(C(=O)N[C@@H](Cc2ccc(-c3ncc(-c4ccc([C@H]5CC[C@H](CC)CC5)cc4)cn3)cc2)C(=O)N2CC(C(=O)O)C2)cc1

>  <Experimental Target>
GLP-1R (Homo sapiens, UniProt P43220)

>  <Measurement Type>
pEC50

>  <Result>
> 6.10

$$$$
>  <Molecule>
CCCCCCCOc1ccc(-c2cnc(-c3ccc(C[C@H](NC(=O)c4ccc(C(C)(C)C)cc4)C(=O)NC(CCC)C(=O)O)cc3)nc2)cc1 (some centres unmarked)

>  <Experimental Target>
GLP-1R (Homo sapiens, UniProt P43220)

>  <Measurement Type>
pEC50

>  <Result>
> 6.10

$$$$
>  <Molecule>
COc1ccc(-c2cnc(-c3ccc(C[C@H](NC(=O)c4ccc(C(C)(C)C)cc4)C(=O)N[C@H](C)C(=O)O)cc3)nc2)cc1

>  <Experimental Target>
GLP-1R (Homo sapiens, UniProt P43220)

>  <Measurement Type>
pEC50

>  <Result>
5.00 to 5.30

$$$$
>  <Molecule>
CCCCCCCOc1ccc(-c2cnc(-c3ccc(C[C@H](NC(=O)c4ccc(C(C)(C)C)s4)C(=O)NC(C(=O)O)c4cccc(S(C)(=O)=O)c4)cc3)nc2)cc1 (some centres unmarked)

>  <Experimental Target>
GLP-1R (Homo sapiens, UniProt P43220)

>  <Measurement Type>
pEC50

>  <Result>
> 6.10

$$$$
>  <Molecule>
CC(C)(C)c1ccc(-c2cnc(-c3ccc(C[C@H](NC(=O)c4ccc(C(C)(C)C)s4)C(=O)NC(C(=O)O)C(O)c4ccccc4)cc3)nc2)cc1 (some centres unmarked)

>  <Experimental Target>
GLP-1R (Homo sapiens, UniProt P43220)

>  <Measurement Type>
pEC50

>  <Result>
5.30 to 5.60

$$$$
>  <Molecule>
CCCCCCCCOc1ccc(-c2cnc(-c3ccc(C[C@H](NC(=O)c4ccc(C(C)(C)C)cc4)C(=O)NCCC(=O)O)cc3)nc2)cc1

>  <Experimental Target>
GLP-1R (Homo sapiens, UniProt P43220)

>  <Measurement Type>
pEC50

>  <Result>
5.60 to 6.10

$$$$
>  <Molecule>
CCCCCCCOc1ccc(-c2cnc(-c3ccc(C[C@H](NC(=O)c4ccc(C(C)(C)C)cc4)C(=O)N4CCC[C@H]4C(=O)O)cc3)nc2)cc1

>  <Experimental Target>
GLP-1R (Homo sapiens, UniProt P43220)

>  <Measurement Type>
pEC50

>  <Result>
5.60 to 6.10

$$$$
>  <Molecule>
CCCCCCCOc1ccc(-c2cnc(-c3ccc(C[C@H](NC(=O)c4ccc(C(C)(C)C)s4)C(=O)NS(=O)(=O)c4ccccc4)cc3)nc2)cc1

>  <Experimental Target>
GLP-1R (Homo sapiens, UniProt P43220)

>  <Measurement Type>
pEC50

>  <Result>
5.60 to 6.10

$$$$
>  <Molecule>
CC(C)CCOc1ccc(-c2cnc(-c3ccc(C[C@H](NC(=O)c4ccc(C(C)(C)C)s4)C(=O)NC(C(=O)O)C(O)c4ccccc4)cc3)nc2)cc1 (some centres unmarked)

>  <Experimental Target>
GLP-1R (Homo sapiens, UniProt P43220)

>  <Measurement Type>
pEC50

>  <Result>
5.30 to 5.60

$$$$

Taken from patent US10034886B2.
